- test: protein stability index of a GFP-peptide fusion (GPS, HEK-293T) (PSI 1-6); higher = more stable;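 note: 24-mer peptide tiles fused after GFP, lentivirally expressed, FACS-sorted into six equal bins by GFP/DsRed ratio, decoded by Illumina sequencing, PSI is the read-weighted mean bin number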
- measurement-conditions: treatment: MLN4924 1 uM, 8 h; c terminus: a fixed tail appended
The threshold is inclusive: protein stability index of exactly 4 counts as true; values below receive false.

| query-sequence | answer-label |
| --- | --- |
| DHLGWVARGTGSGEDSSTSSSTPL [RTN2] | true |
| RKPDYTAYVAMIPQCIKEEDTPSD [ATF4] | true |
| PNGSAAEPPTEAASREENQAGPEA [PALM] | true |
| PRLIAKVEGKGNGIKTVIVNMVDV [EIF5] | false |
| NVADTLVLADLHSAEQLKAQAIDF [SPOPL] | false |
| AGGRVFVLPCIQQIQRISLNTLTL [FLOT1] | false |
| CHLAHELRLSCMERKKVQIRSMDP [DCAF4] | false |
| MMTLLMKKDTLTEEETQFYISETV [STK38L] | false |

Determine whether measured protein stability index meets or exceeds 4 for PSSLGPLLPLQREPLYNWQATKAS [BTBD1]
false

Please indicate if the recorded protein stability index for LTRHTKKTHSQELMKESLQTGDLL [PLAGL1] meets or exceeds 4.
true

Is the recorded value of protein stability index equal to or greater than 4 for this sequence? IFQEQQKKWQQYRSVRRERLKEMK [FAM9B]
false

* * *

- test: protein stability index of a GFP-peptide fusion (GPS, HEK-293T) (PSI 1-6); higher = more stable
- measurement-conditions: treatment: DMSO; c terminus: a fixed tail appended
result-type: protein stability index
Number, no unit, nothing else.

Recorded results for 2 sequences are shown here.
| query-sequence | result-type | endpoint-value |
| --- | --- | --- |
| VFNLFRTMGLRHLPVVNAVGEIVG [CLCN6] | protein stability index | 2.45 |
| SEKTDESDTIPYLKKFLYNFDNPW [MIA2] | protein stability index | 2.78 |

Measured protein stability index of GSSNVGINRWRFLLQCLEDLDANL [CRY1] : 2.48

# protein stability index of EPEMAVFLQNAKTLLKKISEASKA [TRIM55] = 2.46

// field: protein stability index; key: VYFKRFYARYSLKSIDPVLMAPTC [CCNC] ; value = 3.11

Record summary for IKLREYEAALNSKDAALATALGDK [LMNB1] : reported protein stability index = 4.08

Query LLDCFGIPVLMALSWFILHARYRV [SLC35F2] yields protein stability index of 3.07

* * *

- test: protein stability index of a GFP-peptide fusion (GPS, HEK-293T) (PSI 1-6); higher = more stable
- measurement-conditions: treatment: MLN4924 1 uM, 8 h; c terminus: a fixed tail appended
Rule: protein stability index under 3 gives -1, otherwise 1.

Example entries begin here.
| query-sequence | answer-label |
| --- | --- |
| QELQIDDNEYAYLKAIIFFDPDAK [HNF4A] | -1 |
| YNDVMQENYETVISLALFVLPKPK [ZNF75A] | -1 |
| GDFDFDEVKFPNASDMFRRLRDAG [MYORG] | 1 |

State whether the measured protein stability index reaches 3, counting equality as reaching it, for FVQRSGNYFVTMFDDYSATLPLTL [SLC6A17]
-1

Does the sequence TPSQEHLKHQTVYRLLKCAPRGKN [FEM1A] have recorded protein stability index that is 3 or more?
1

Quick check: does FRHLRLQYIISDLASARIIEQDAV [GMCL1] have protein stability index greater than or equal to 3?
-1

Check if protein stability index >= 3 (inclusive). Item: AIYFTAYDQLKAFLCGRALTSDLY [SLC25A39]
1

Is protein stability index for RQKREAAARKKYNLLQDSSTSDSD [C18orf25] at or above 3?
1

Hi, just wondering whether ALDERAKVLHEDKQTREQLHSISD [TRIM29] shows protein stability index of 3 or higher.
1

For this sequence, is measured protein stability index 3 or higher? QFGLLSFFFAVLHAIYSLSYPMRR [STEAP1]
-1

Form field: protein stability index at least 3? Entry: DLLNNKLVTLPVSFAQLKNLKWLD [LRRC59]
-1

Given IYSTDLHKLDLNTREWTQLKPNNL [KLHDC10] , state whether its protein stability index is at least 3.
-1

Quick check: does TWKKNRRQLAYSTVGTPDYIAPEV [STK38L] have protein stability index greater than or equal to 3?
1

* * *

- test: protein stability index of a GFP-peptide fusion (GPS, HEK-293T) (PSI 1-6); higher = more stable
- measurement-conditions: treatment: MLN4924 1 uM, 8 h; c terminus: a fixed tail appended
Reported protein stability index values for a set of sequences
// no unit, no text: just the number

protein stability index reading for YERSFIHKIKHKHILAKNYFSQVP [IQUB] : 2.24

According to the records, this sequence EDEDKSEPEQTGADAAEDEEVDVT [RBBP5] displays protein stability index of 5.73

* * *

- test: protein stability index of a GFP-peptide fusion (GPS, HEK-293T) (PSI 1-6); higher = more stable
- measurement-conditions: treatment: DMSO; c terminus: a fixed tail appended
result-type: protein stability index
Response field accepts a number only; no unit should be typed.

Example entries and their recorded answers appear below.
| query-sequence | protein stability index |
| --- | --- |
| CADVLFILQDQEHIFAHRIYLATS [RHOBTB1] | 2.93 |
| NVADTLVLADLHSAEQLKAQAIDF [SPOPL] | 3.46 |
| DNPSVLSGPMQAALQAAAHASVDI [SMG5] | 4.05 |
| DLLNNKLVTLPVSFAQLKNLKWLD [LRRC59] | 2.24 |
| ERCNQLLRALKLVITALKCHKYDR [ZER1] | 2.56 |
| EAVLHCHQMGVVHRDLKPENLLLA [CAMK2A] | 2.64 |
| VVEVENFLFVLGGEDQWNPNGKHS [KLHL14] | 2.39 |
| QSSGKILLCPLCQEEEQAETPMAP [TRIM15] | 3.79 |

Item: LCGAGSEPSIAPTSCAGNLPSRPP [RSPH3] | protein stability index: 4.36

Looking up GDFDFDEVKFPNASDMFRRLRDAG [MYORG] , I found its protein stability index recorded as 3.98

Sample STGTSRWPSAKSAGWTLATLGEQG [SCNN1D] ; protein stability index observed: 3.17

* * *

Listed next: entries and their corresponding protein stability index.
- test: protein stability index of a GFP-peptide fusion (GPS, HEK-293T) (PSI 1-6); higher = more stable
- measurement-conditions: treatment: MLN4924 1 uM, 8 h; c terminus: a fixed tail appended
# answer = number (no unit)

Previously resolved entries follow.
| query-sequence | result-type | endpoint-value |
| --- | --- | --- |
| ANYTCVAMSTLGVIEAIAQITVKA [PTPRD] | protein stability index | 3.29 |
| ELNGHTQKITAIITFPSLESCEEK [WDR41] | protein stability index | 3.42 |
| SVPPVAGAPSVGQPGAGFGMPPAG [SNAP91] | protein stability index | 4.38 |

Briefly, protein stability index measured for NKGTRFSEAWEYFHLAPARAGHHP [ZBED2] : 2.96

Given item MAMQMQLEANADTSVEEESFGPQP [RAD51] , the value recorded as its protein stability index is 5.26

Query EQTAPGDSTGYMEVSLDSLDLRVK [EHMT1] yields protein stability index of 4.87

The measured protein stability index associated with PALLFPATRGVPAKRLLDADDAAA [TRIB1] reads 4.67

Lab book: protein stability index of VNEKLPQREGTGKTVSLQIFSVLN [SMOC2] noted as 2.84

* * *

This listing pairs sequences with measured protein stability index.
- test: protein stability index of a GFP-peptide fusion (GPS, HEK-293T) (PSI 1-6); higher = more stable
- measurement-conditions: treatment: DMSO; c terminus: a fixed tail appended

Below are worked cases with known answers.
| query-sequence | protein stability index |
| --- | --- |
| AARSPQGLGASTAEISARTMQSMF [PTPRD] | 3.38 |
| SQITDSEHNSSLVSQQTGSPGKQP [ZNF8] | 5.33 |
| EAAPRQCIELYFDEKYSIEPSWEC [NETO1] | 2.48 |

Now for the sequence whose protein stability index we want.
Lookup result for DQEQGSSFQMSEGSEAAVIPLDLG [FAM189A2] ; measured protein stability index: 5.34

* * *

Below is a list of entries, each paired with its recorded protein stability index value.
- test: protein stability index of a GFP-peptide fusion (GPS, HEK-293T) (PSI 1-6); higher = more stable
- measurement-conditions: treatment: DMSO; c terminus: a fixed tail appended

| query-sequence | protein stability index |
| --- | --- |
| SGHGDAHLQEYAGNFQGIRFHYDR [FATE1] | 3.32 |
| THACREYLKNLPLLSKYCGYREDN [TPH1] | 2.22 |
| NSHQDFWTVWSGNRASLYSFPEPE [PRAME] | 2.49 |
| TRPKKMGSQLPKPRMLRESGHGDA [FATE1] | 4.53 |
| EVQKLVESGVDVNSQNEVNGWTCL [ANKRD40] | 3.43 |
| LESLQDGAAESPYAYSNGIDYKTT [RAB40C] | 4.29 |
| SDYESIEVPDSYTGPRLSFPLLPD [PPEF2] | 4.13 |
| TGLNNGRIKIWDVYTGKLLLNLVD [WSB1] | 2.54 |

Entry under test: PNNSCYSAGIAKLEEGDELQLAIP [TNFSF13B] . Its protein stability index was 4.55

The measured protein stability index associated with FDQTVFQEVFEPPHYELCTLRGTG [NETO1] reads 2.96
